# System: RXRa DBDmut IVT, anti-RXR (DBD mutation: RXRa K156A/R161A, NR concentration 90 nM)
# assay notes: PBM binding z-score (relative to random genomic background probes); higher = stronger binding; sequences stand for … in GC…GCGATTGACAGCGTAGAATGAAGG
quantity: PBM binding z-score
Please give only the number in your answer, with no unit.

Note down PBM binding z-score recorded for ATTACAGGGTCACTAGGCCAGAGTAGGTACGAAT 2.67

Note down PBM binding z-score recorded for TCTCGGAGGACACGAAGGTCATAGCTTTCCAGAG 1.41

Note down PBM binding z-score recorded for ATCGAAAGGTCGAAGGGGAGTATACCCACCCGAA 0.681

Note down PBM binding z-score recorded for CTCGAAAGGTCGGTTGAGGAGAGTATACGGATAA 0.577

Note down PBM binding z-score recorded for ATCTCTTGGTAAAGATAGTTCAGTGAATGCAAAT 0.404

Note down PBM binding z-score recorded for TAGAGTAGGTTAGGGGCATTCAGAATGGCGTCGA 0.0146

Note down PBM binding z-score recorded for ACTAGTTGGTCAACTGAGGTCACACACAATTCGG 1.89

Note down PBM binding z-score recorded for CGTCCAAGGTCAATGCTAGGTCAGTCAAAGCATT 3.62

Note down PBM binding z-score recorded for TCTGCTAGGTCACCGATGGTCAGCTAATCTGCTA 0.891

Note down PBM binding z-score recorded for TCTGCTAGGTCAGTTGGTCAGCTTACGAGCTGCC 0.621

Note down PBM binding z-score recorded for TCATATAGGTAAACAGATGAAAGTCCGTAAGTTA 1.38

Note down PBM binding z-score recorded for CGTCCAAGGTCAGCAGGTCAGTAAAAGCGACGTG 2.49

* * *

# Test system: PPARg:RXRa DBDmut IVT, anti-RXR (DBD mutation: RXRa K156A/R161A, NR concentration 270 nM, RXRa partner concentration 90 nM)
# assay notes: PBM binding z-score (relative to random genomic background probes); higher = stronger binding; sequences stand for … in GC…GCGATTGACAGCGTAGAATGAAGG
quantity: PBM binding z-score
Please give only the number in your answer, with no unit.

Note down PBM binding z-score recorded for TCTCGGAGGGCACGAAAGGTCAGAGCTCGACATC 1.78

Note down PBM binding z-score recorded for GCTAGGTGGTCAGTAAAAGGTCACACACCGGTCG 0.659

Note down PBM binding z-score recorded for CAAACTAGGTCAAGACGTCAAAGTCCGCTTCCCG 7.92

Note down PBM binding z-score recorded for AGAACGAGGGCACGTTGAGTTGATAGCAGAGTAG 3.79

Note down PBM binding z-score recorded for TCTAGTTGGTCACGGAGTTCACACACGACGGGTA 2.4

Note down PBM binding z-score recorded for AGAACGAGGTCAATGAGTTGATAGCACGGGTGGC 5.59

Note down PBM binding z-score recorded for ATCGAAAGGTCTACGAGGTGAGTATACACCGTTT -0.371

Note down PBM binding z-score recorded for GTACCAAGGTGAAAAGGTCGTTGATGAGTAGGCG 1.77

Note down PBM binding z-score recorded for CCTATGAGTTGACCATAAGGGCAACCGAAGCTCG -0.0484

Note down PBM binding z-score recorded for AGAACGAGGGCAATGAGTTTATAGCACGGGTGGC 3.6

Note down PBM binding z-score recorded for CCGACTGGGGCATAAGGTTACCCTAAGCCAGCCC 2.4

Note down PBM binding z-score recorded for TAGCCTAGCTCAGATCGGGCCAGTATACGCTATA -0.922

Note down PBM binding z-score recorded for CCTACTGGGCCACGAAAGGTTATTGATTCAGTGA 5.07

Note down PBM binding z-score recorded for GCGGCTAGGTCAACTGATGGTCAGCTAAAGCTCG 3.34

Note down PBM binding z-score recorded for CCTTACGGGTCACTGACGGGTTATAGCATTTGGA 2.64

Note down PBM binding z-score recorded for ATACCAAGGTGATCGTGAGATCGTTGATACTAAC 0.453

Note down PBM binding z-score recorded for TCTGCTTGGTCAGTTGGTCAGCTAACGAGCTGCC 0.546

Note down PBM binding z-score recorded for ATCTCAAGGTAAAGTTCAGTGAAAGATCGATAGA 0.17

Note down PBM binding z-score recorded for CGAACGAGGGAATGAGTTGATAGCAAATGCCGAT -0.446

Note down PBM binding z-score recorded for AATACAGGGTCACTAGGCCAGAGTCGGTACGAAT 4.04

Note down PBM binding z-score recorded for CCTGCTGGGCCAAAAAGGTCATTGATGCCGATAA 0.633

Note down PBM binding z-score recorded for TCTCCTAGGTCAACGATGGTCAGCTAATCTGCTA 4.1

Note down PBM binding z-score recorded for CATACTGGGCCACGAAAGGTCATTGATTCAGTGA 4.74

Note down PBM binding z-score recorded for ATCTCTAGGTAAACAAGTTCAGTGAATGCCGAAC 2.47

Note down PBM binding z-score recorded for ATCACTAGGTAAAAGTTCAGTGAATCCCGAGGAT 3.38

Note down PBM binding z-score recorded for TAGCCTAGGTCATGCGGGCCAGAATAGTGTCGGC 1.69

* * *

# Test system: PPARg:RXRa 90nM:30nM, anti-RXR (NR concentration 90 nM, RXRa partner concentration 30 nM)
# assay notes: PBM binding z-score (relative to random genomic background probes); higher = stronger binding; sequences stand for … in GC…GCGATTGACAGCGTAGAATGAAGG
Label rule not met if PBM binding z-score falls below 4; label rule met in every other case.

# bool: PBM binding z-score of GCATATAGGTAGTACAAGGTGAAAGTCCGATTGT >= 4 rule not met

# bool: PBM binding z-score of TCTTGTATATCAATAGAGGTTAAGAAAGTGCGCT >= 4 rule not met

# bool: PBM binding z-score of CCTCGGAGGACAACAGGAGGTCAGAGCTGCCAGA >= 4 rule not met

# bool: PBM binding z-score of CCTACTGGCCCAAGGTCATTGATCAGTCAAAGCA >= 4 rule not met

# bool: PBM binding z-score of CCGACTGGGGCAGAAAGGTTACTATACCATCCGG >= 4 rule not met

# bool: PBM binding z-score of CATGCTAGGTCAATGGTCAGCTAAAGCAGCTCGC >= 4 rule met

# bool: PBM binding z-score of CCTTACGGGTCAAGGTTAAAGCACGGGTGGTACG >= 4 rule met

# bool: PBM binding z-score of TCATATAGGTAATACAGGTGGAAGTCGGCATCTA >= 4 rule not met

# bool: PBM binding z-score of CGAATTAGGTCATCCAGGACAGTGAATACATTGA >= 4 rule met

# bool: PBM binding z-score of ACTATTAGTTGAGACGAGGGAAACCGATAGGTTG >= 4 rule not met

# bool: PBM binding z-score of ATCTCTAGGTAAAGGTTCAGTGAATCCCGAGGAT >= 4 rule met

# bool: PBM binding z-score of CCGACTGGGGCAAAGGTTACCAGACTCAGTACGA >= 4 rule met

# bool: PBM binding z-score of CAAACTAGGTCATGAGGTCAAAGTCCGCTTCCCG >= 4 rule met

# bool: PBM binding z-score of CCTCGGAGGACAACAGGAGGTCAGACCTGCCAGA >= 4 rule not met

# bool: PBM binding z-score of TGTCAAAGTTGAAAGGTAACGTAAGTATCCACAC >= 4 rule met

# bool: PBM binding z-score of CCTTACGGGTCACTCCAGGTTATAACATCGGAGT >= 4 rule not met

# bool: PBM binding z-score of ACTAGTTGGTCGGCTGAGGTCACACACAATTCGG >= 4 rule not met

# bool: PBM binding z-score of CCTAGCAGGTCAATCTGGGTCACTCAAGGCTTGA >= 4 rule met

# bool: PBM binding z-score of ATCTCAAGGTAACAAGTTCAGTGAAAGAGAGGAC >= 4 rule not met

# bool: PBM binding z-score of ATCTCTAGGTAACTAGTTCAGTGAAAGAGAGGAC >= 4 rule not met

# bool: PBM binding z-score of CGAACTAGGTCATCCAGCACAGTGAATACATTGA >= 4 rule met

# bool: PBM binding z-score of TCATATAGGTAATACAGGTGAAACTCGGCATCTA >= 4 rule not met

# bool: PBM binding z-score of ATCTGTAGGTAAAGTTCAGTGAAAGATCGATAGA >= 4 rule not met

# bool: PBM binding z-score of TCATATAGGTCAACAGGTGAAAGTCCGTAAGTTA >= 4 rule met

# bool: PBM binding z-score of ACTAGTTGGTCAGCTGATGTCACACACAATTCGG >= 4 rule not met
